assayed system: HSA (Homo sapiens, UniProt P02768)
Sequence (P02768 25-609): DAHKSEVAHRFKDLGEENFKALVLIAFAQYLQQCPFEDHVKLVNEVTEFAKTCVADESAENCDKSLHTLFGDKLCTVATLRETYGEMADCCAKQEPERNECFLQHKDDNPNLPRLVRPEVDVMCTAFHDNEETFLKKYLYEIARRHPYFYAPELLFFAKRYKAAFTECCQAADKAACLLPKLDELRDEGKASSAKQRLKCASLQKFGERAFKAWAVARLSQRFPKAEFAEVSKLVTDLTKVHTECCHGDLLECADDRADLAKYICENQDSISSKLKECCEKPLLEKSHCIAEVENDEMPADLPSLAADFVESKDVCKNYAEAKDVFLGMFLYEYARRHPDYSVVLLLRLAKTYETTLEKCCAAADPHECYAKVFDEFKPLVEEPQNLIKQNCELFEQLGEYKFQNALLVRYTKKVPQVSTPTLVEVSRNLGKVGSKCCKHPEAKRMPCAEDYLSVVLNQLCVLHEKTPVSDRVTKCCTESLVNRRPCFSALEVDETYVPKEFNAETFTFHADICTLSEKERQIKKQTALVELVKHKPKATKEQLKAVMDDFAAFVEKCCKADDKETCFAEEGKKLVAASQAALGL
experiment: Albumin binding affinity by surface plasmon resonance
experimental setup: SPR, BIAcoT200 system, HSA
Square brackets hold non-standard residues; d marks the D form. Ends that are not written are not given here. * marks the point of attachment. FITC = O=C1OC2(c3ccc(O)cc3Oc3cc(O)ccc32)c2ccc(NC(=S)*)cc21; Stearoyl = CCCCCCCCCCCCCCCCCC(=O)*; Palmitoyl = CCCCCCCCCCCCCCCC(=O)*; Myristoyl = CCCCCCCCCCCCCC(=O)*; Aib = CC(C)(N)C(=O)O; Ahx = NCCCCCC(=O)O
Kindly state log10(k a) for each of the entries shown.
All values: log10 k a [M⁻¹ s⁻¹].

In the examples that follow, each entry is paired with its recorded log10(k a).
substance	assayed system	readout value
{FITC-Ahx}-EYEEK(Palmitoyl)YEGGGGSGGGGSFNPRH[Aib]EGTFTSDVSSYLEGQAAKEFIAWLVKGRG (N-terminus assumed) [PES14]	HSA (Homo sapiens, UniProt P02768)	4.16
{FITC-Ahx}-EYEEYEK(Stearoyl)GGGGSGGGGSFNPRH[Aib]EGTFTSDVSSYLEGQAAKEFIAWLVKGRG (N-terminus assumed) [PES21]	HSA (Homo sapiens, UniProt P02768)	4.06
{FITC-Ahx}-EYEK(Myristoyl)EYEGGGGSGGGGSFNPRH[Aib]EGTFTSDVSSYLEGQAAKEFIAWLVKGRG (N-terminus assumed) [PES10]	HSA (Homo sapiens, UniProt P02768)	4.11

I need log10(k a) for every entry listed below, if you could help.
1. {FITC-Ahx}-EYK(Stearoyl)EEYEGGGGSGGGGSFNPRH[Aib]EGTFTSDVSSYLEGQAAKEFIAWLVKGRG (N-terminus assumed) [PES09]
2. {FITC-Ahx}-EYEEYK(Myristoyl)EGGGGSGGGGSFNPRH[Aib]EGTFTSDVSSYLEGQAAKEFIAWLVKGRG (N-terminus assumed) [PES16]
3. {FITC-Ahx}-EK(Palmitoyl)YEEYEGGGGSGGGGSFNPRH[Aib]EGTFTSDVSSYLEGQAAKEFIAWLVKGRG (N-terminus assumed) [PES05]
4. {FITC-Ahx}-EK(Myristoyl)YEEYEGGGGSGGGGSFNPRH[Aib]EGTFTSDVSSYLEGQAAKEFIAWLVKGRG (N-terminus assumed) [PES04]
5. {FITC-Ahx}-EYEEYEK(Myristoyl)GGGGSGGGGSFNPRH[Aib]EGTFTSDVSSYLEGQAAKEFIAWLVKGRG (N-terminus assumed) [PES19]
6. {FITC-Ahx}-EYEEYK(Palmitoyl)EGGGGSGGGGSFNPRH[Aib]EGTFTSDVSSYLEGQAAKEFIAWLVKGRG (N-terminus assumed) [PES17]

[4.08, 4.04, 3.95, 3.09, 3.40, 4.08]

----------
assayed system: HSA (Homo sapiens)
experiment: Albumin binding affinity by surface plasmon resonance
experimental setup: SPR, BIAcoT200 system, HSA
Square brackets hold non-standard residues; d marks the D form. Ends that are not written are not given here. * marks the point of attachment. FITC = O=C1OC2(c3ccc(O)cc3Oc3cc(O)ccc32)c2ccc(NC(=S)*)cc21; Stearoyl = CCCCCCCCCCCCCCCCCC(=O)*; Palmitoyl = CCCCCCCCCCCCCCCC(=O)*; Myristoyl = CCCCCCCCCCCCCC(=O)*; Aib = CC(C)(N)C(=O)O; Ahx = NCCCCCC(=O)O
Could you please mark TRUE for values of k d below 0.03 s⁻¹ and FALSE for values at or above it?

substance	assayed system	class label
{FITC-Ahx}-EK(Myristoyl)YEEYEGGGGSGGGGSFNPRH[Aib]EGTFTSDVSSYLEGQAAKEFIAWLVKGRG (N-terminus assumed) [PES04]	HSA (Homo sapiens)	FALSE
{FITC-Ahx}-EYEEYK(Palmitoyl)EGGGGSGGGGSFNPRH[Aib]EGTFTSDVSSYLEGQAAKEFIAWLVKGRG (N-terminus assumed) [PES17]	HSA (Homo sapiens)	FALSE
{FITC-Ahx}-EYEEK(Stearoyl)YEGGGGSGGGGSFNPRH[Aib]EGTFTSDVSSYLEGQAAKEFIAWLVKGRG (N-terminus assumed) [PES15]	HSA (Homo sapiens)	TRUE

# TODO verify k d < 0.03 s⁻¹ strictly for this substance: {FITC-Ahx}-EYEEYK(Stearoyl)EGGGGSGGGGSFNPRH[Aib]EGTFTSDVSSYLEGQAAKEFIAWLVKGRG (N-terminus assumed) [PES18]
FALSE

# TODO verify k d < 0.03 s⁻¹ strictly for this substance: {FITC-Ahx}-EYEEYEK(Palmitoyl)GGGGSGGGGSFNPRH[Aib]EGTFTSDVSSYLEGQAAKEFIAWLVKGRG (N-terminus assumed) [PES20]
FALSE

# TODO verify k d < 0.03 s⁻¹ strictly for this substance: {FITC-Ahx}-K(Myristoyl)EYEEYEGGGGSGGGGSFNPRH[Aib]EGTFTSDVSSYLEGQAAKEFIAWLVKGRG (N-terminus assumed) [PES01]
TRUE
